The following compounds are shown together with reported Plant response rating, Galium values.
system: galium (catchweed bedstraw, Galium aparine); assay: Test A postemergence, galium; format: in vivo; settings: Postemergence, 125 g ai/ha; visual injury approx. 10 days; 0 to 100 scale (0 no effect, 100 complete control)
// print number alone

compound=Cc1cc(C)c(N(S(=O)(=O)C(F)(F)F)S(=O)(=O)C(F)(F)F)cc1-c1cc(Cl)nn(C)c1=O value_reported=50
compound=Cc1cc(C)c(-c2cc(Br)nn(C)c2=O)cc1NS(=O)(=O)C(F)(F)F value_reported=60
compound=COCC1(COC)CC(c2cc(NS(=O)(=O)C(F)(F)F)c(C)cc2C)=NO1 value_reported=90
compound=CCn1nc(Cl)cc(-c2cc(N(S(C)(=O)=O)S(=O)(=O)C(F)(F)F)c(C)cc2C)c1=O value_reported=10
compound=Cc1cc(C)c(-c2cc(Cl)nn(C)c2=O)cc1NS(=O)(=O)C(F)(F)F value_reported=70

Find the measured Plant response rating, Galium of COc1c(Cl)nn(C)c(=O)c1-c1cc(NS(=O)(=O)C(F)(F)F)c(C)cc1C and report it.
0

Report measured Plant response rating, Galium; entry is Cc1cc(C)c(N(S(=O)(=O)C(F)(F)F)S(=O)(=O)C(F)(F)F)cc1-c1cc(C(F)(F)F)nn(C)c1=O
50

Provide one value: measured Plant response rating, Galium of CCn1nccc(-c2cc(NS(=O)(=O)C(F)(F)F)c(C)cc2C)c1=O
90

###

system: Foxtail, Giant (giant foxtail, Setaria faberi); test: Test A1 preemergence, Foxtail, Giant; assay type: in vivo; conditions: 125 g ai/ha, 0 to 100 scale, 0 no effect, 100 complete control
So basically, if Plant response rating, Foxtail, Giant comes in under 90 it's Met, and if it's 90 or more it's Not met.

As a guide, the following entries are already answered.
compound=Cc1c(C(=O)N2CCOCC2)cc(NS(=O)(=O)C(F)(F)F)c(Cl)c1F class_label="Not met"
compound="Cc1cc(C)c(N(COC(=O)C(C)(C)C)S(=O)(=O)C(F)(F)F)cc1N1CCC2(CCC(C(F)(F)F)CC2)C1=O (centres unmarked)" class_label=Met
compound="Cc1cc(C2CC2)c(C2=NOC3CCCC23)cc1NS(=O)(=O)C(F)(F)F (centres unmarked)" class_label="Not met"
compound=CCc1cc(C)c(C2=NOC3(CCCC3)C2)cc1NS(=O)(=O)C(F)(F)F class_label=Met
compound="Cc1cc(C)c(N(COC(=O)C(C)(C)C)S(=O)(=O)C(F)(F)F)cc1C1=NOC2CCCCCC12 (single isomer, unassigned)" class_label=Met

is_below(Plant response rating, Foxtail, Giant, 90) for Cc1c(NS(=O)(=O)C(F)(F)F)cc(C2=NOC3(CCCC3)C2)c(C)c1C ?
Not met

Lab note: confirm whether the reported Plant response rating, Foxtail, Giant for this compound is below 90, equality not counting. compound: Cc1cc(Br)c(C2=NOC3CCCC23)cc1NS(=O)(=O)C(F)(F)F (centres unmarked)
Met

Is the reported Plant response rating, Foxtail, Giant for CCC1ON=C(c2cc(N(C(=O)OCC(C)C)S(=O)(=O)C(F)(F)F)c(C)cc2C)C1CC (centres unmarked) [Compound 345] strictly below 90?
Not met

Just wondering, is Plant response rating, Foxtail, Giant of CCOC(=O)N(c1cc(C2=NOC3CCCC23)c(CC)cc1C)S(=O)(=O)C(F)(F)F (centres unmarked) below 90?
Met

Could you please tell me whether Plant response rating, Foxtail, Giant recorded for Cc1cc(C)c(N(COC(=O)C(C)(C)C)S(=O)(=O)C(F)(F)F)cc1N1CCC2(CCC(F)(F)CC2)C1=O is less than 90?
Not met

Does this compound meet the criterion Plant response rating, Foxtail, Giant < 90? CCC1ON=C(c2cc(N(COC(=O)C(C)(C)C)S(=O)(=O)C(F)(F)F)c(C)cc2C)C1CC (centres unmarked) [Compound 347]
Met

Where these numbers come from: patent US20230278972A1
